All figures here come from patent US20210403579A1.

Biological target: T1, Human ST2 (human, UniProt Q01638 19-328, limits assumed)
T1 construct: also called human ST2 protein; Interleukin 1 receptor-like 1
T1 sequence (looked up): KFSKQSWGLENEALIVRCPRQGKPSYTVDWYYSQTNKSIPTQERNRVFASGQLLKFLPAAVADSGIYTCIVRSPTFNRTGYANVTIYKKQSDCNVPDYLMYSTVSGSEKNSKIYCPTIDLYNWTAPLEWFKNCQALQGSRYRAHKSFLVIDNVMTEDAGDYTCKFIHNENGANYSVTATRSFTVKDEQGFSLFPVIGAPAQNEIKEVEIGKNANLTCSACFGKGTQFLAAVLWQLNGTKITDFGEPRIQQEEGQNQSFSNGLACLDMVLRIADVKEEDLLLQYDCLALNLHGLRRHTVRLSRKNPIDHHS
Test: SPR (Carterra), antibody immobilized, ST2 analyte
observation.type: koff (s⁻¹)
Your answer should be a plain number; it is taken to be in s⁻¹.

- binder: "Human ST2 IgG1 Antibody 21 (antibody, V domains shown, IgG1; also called ST2 Antibody 21) VH: QVQLVQSGAEVKKPGASVKVSCKASGYTFSNHYMHWVRQAPGQGLEWMGWVNPTSGNTGYAQKFQGRVTMTRDTSTSTVYMELSSLRSEDTAVYYCARDLGVTYFDLWGRGTLVTVSS VL: DIQMTQSPSSLSASVGDRVTITCRASQGISSWLAWYQQKPGKAPKLLIYEASHLETGVPSRFSGSGSGTDFTLTISSLQPEDFATYYCLQDYNYPLTFGGGTKVEIKR"
  unit.string: "s⁻¹"
  koff: 0.017

Prompt: State its koff: Human ST2 IgG1 Antibody 16 (antibody, V domains shown, IgG1; also called ST2 Antibody 16) VH: QVQLVQSGAEVKKPGASVKVSCKASGYTFTSHYMHWVRQAPGQGLEWMGIINPSGGSTSYAQKFQGRVTMTRDTSTSTVYMELSSLRSEDTAVYYCARAGIGYLAAHDLYYYYGMDVWGRGTLVTVSS VL: EIVMTQSPATLSVSPGERATLSCRASQSVSSNFAWYQQKPGQAPRLLIYGASTRATGIPARFSGSGSGTEFTLTISSLQSEDFAVYYCQQYYSTPYTFGQGTKVEIKR
Completion: 0.056
